# credit: patent US20110038869A1

Target: T1, full length CD32b2 on transfected IIA1.6 cells (human, UniProt P31994-2 43-291)
T1 construct: whole, on cells; also called IIA1.6-CD32b2
T1 sequence (looked up): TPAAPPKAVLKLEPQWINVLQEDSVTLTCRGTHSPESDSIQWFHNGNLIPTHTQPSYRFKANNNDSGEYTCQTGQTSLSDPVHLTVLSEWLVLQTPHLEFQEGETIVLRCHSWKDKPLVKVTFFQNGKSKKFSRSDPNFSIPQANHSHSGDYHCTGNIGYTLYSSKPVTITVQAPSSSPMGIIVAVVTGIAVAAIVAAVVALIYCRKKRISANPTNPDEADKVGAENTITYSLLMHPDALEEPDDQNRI
Test: flow cytometry on IIA1.6-CD32b2 cells
Source text: After harvesting and counting, IIA1.6 cells stably transfected with full length CD32a and CD32b (van den Herik-Oudijk et al., 1994), control IIA1.6 cells and Daudi-luc cells were resuspended in PBS (1×10⁶ cells/ml). […] (in the dark), cells were washed three times, and specific binding of the HuMabs was detected by flow cytometry on a FACSCalibur (BD Biosciences). […]
Observable: pEC50
Units for pEC50: none; it is -log10 of a concentration expressed in mol/L.

Ask | I would be grateful if you could share the reported pEC50 for Antibody 016 (antibody, human IgG1, V domains shown, Human antibody; also called HuMab 016) VH: QVQLVESGGGVVQPGRSLRLSCAASGFTFSSYGIHWVRQAPGKGLEWVAVIGYDGSDKNYADSVKGRFTIFRDNSKNTLYLQMNSLRAEDTAVYYCARDQLGDAFDIWGQGTMVTVSS VL: EIVLTQSPATLSLSPGERATLSCKASQSVSSSLAWYQQKPGQAPRLLIYDASNRATGIPARFSGSGSGTDFTLTISSLEPEDFAVYYCQQRSNWPPYTFGQGTKLEIKR .
Reply | 9.96
